Assay target: human URAT1 (Homo sapiens (Human), UniProt Q96S37)
Sequence (Q96S37 whole entry): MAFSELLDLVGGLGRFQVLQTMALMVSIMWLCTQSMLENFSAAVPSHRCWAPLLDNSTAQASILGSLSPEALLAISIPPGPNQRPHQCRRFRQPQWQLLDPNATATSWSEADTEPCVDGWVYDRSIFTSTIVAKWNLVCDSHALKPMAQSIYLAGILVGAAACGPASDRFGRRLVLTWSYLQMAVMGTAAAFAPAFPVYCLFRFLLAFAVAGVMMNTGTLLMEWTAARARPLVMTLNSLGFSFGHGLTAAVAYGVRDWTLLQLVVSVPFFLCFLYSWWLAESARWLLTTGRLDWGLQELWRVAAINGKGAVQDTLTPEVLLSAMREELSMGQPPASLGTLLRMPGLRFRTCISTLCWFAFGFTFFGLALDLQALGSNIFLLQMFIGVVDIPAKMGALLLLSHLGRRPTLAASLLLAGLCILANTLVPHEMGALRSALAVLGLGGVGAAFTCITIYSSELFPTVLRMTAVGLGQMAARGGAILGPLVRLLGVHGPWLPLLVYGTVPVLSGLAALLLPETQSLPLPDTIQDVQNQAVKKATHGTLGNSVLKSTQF
Test description: Inhibition of 14C-uric acid absorption in URAT1 cell model (HEK-293T cells transfected with human URAT1)
Conditions: HEK-293T cells transfected with human URAT1, 14C-uric acid uptake, 5 min, 37 degrees; read-out: URAT1 IC50 Activity level
pIC50: −log10 of the molar value.
Below, each of the compounds is paired with its reported pIC50 value.

Examples from the recorded data:
- Smiles text: "N#Cc1ccc(-c2cnccc2SCC2(C(=O)O)CCCC2)c2ccccc12"
  pIC50: "> 7.00"
- Smiles text: "CC(C)(Sc1ccncc1-c1ncc(C#N)c2ccccc12)C(=O)O"
  pIC50: "< 6.00"
- Smiles text: "N#Cc1ccc(-c2cnccc2NCCCC(=O)O)c2ccccc12"
  pIC50: "< 6.00"
- Smiles text: "N#Cc1ccc(-c2cnccc2NCCC(=O)O)c2ccccc12"
  pIC50: "< 6.00"
- Smiles text: "N#Cc1ccc(-c2cnccc2SCCCC(=O)O)c2ccccc12"
  pIC50: "> 7.00"

Task: What is its pIC50 for human URAT1 (Homo sapiens (Human), UniProt Q96S37)? Entry: `CC(C)(Oc1ccncc1-c1ccc(C#N)cc1)C(=O)O`
Output: < 6.00

Task: Lab note: need pIC50 for `N#Cc1ccc(-c2cnccc2Sc2ccc(C(=O)O)cc2)c2ccccc12` on human URAT1 (Homo sapiens (Human), UniProt Q96S37), anyone have it?
Output: 6.00 to 7.00

Task: // lookup pIC50 | system=human URAT1 (Homo sapiens (Human), UniProt Q96S37) | key= `CC(C)(Nc1ccncc1-c1ccc(C#N)c2ccccc12)C(=O)O`
Output: < 6.00

Task: Form entry - test system: human URAT1 (Homo sapiens (Human), UniProt Q96S37); read-out: pIC50; compound: `N#Cc1ccc(-c2cnccc2SCC2(CC(=O)O)CC2)c2ccccc12`
Output: > 7.00

Task: // lookup pIC50 | system=human URAT1 (Homo sapiens (Human), UniProt Q96S37) | key= `O=C(O)CC1(CSc2ccncc2-c2ccc(C3(O)CC3)cc2)CC1`
Output: 6.00 to 7.00

Task: # value lookup — system human URAT1 (Homo sapiens (Human), UniProt Q96S37), readout pIC50, item `CC(C)(Sc1ccncc1-n1cc(C#N)c2ccccc21)C(=O)O`
Output: < 6.00

Task: Hello, I am looking for reported pIC50 with human URAT1 (Homo sapiens (Human), UniProt Q96S37) for `N#Cc1ccc(-c2cnccc2SC[C@H]2C[C@@H](C(=O)O)C2)c2ccccc12` . Could you help?
Output: 6.00 to 7.00

Task: GET /values?readout=pIC50&system=human URAT1 (Homo sapiens (Human), UniProt Q96S37)&item= `N#Cc1ccc(-c2cnccc2SCC2(CC(=O)O)CC2)nc1`
Output: < 6.00

Task: State its pIC50 on human URAT1 (Homo sapiens (Human), UniProt Q96S37): `N#Cc1ccc(-c2cnccc2SC[C@H]2C[C@H](C(=O)O)C2)c2ccccc12`
Output: < 6.00

Task: Find pIC50 (human URAT1 (Homo sapiens (Human), UniProt Q96S37)) for the entry `O=C(O)CC1(CSc2ccncc2-c2ccc(C3(O)COC3)cc2)CC1`
Output: < 6.00

Task: Lab request: please report pIC50 under test system human URAT1 (Homo sapiens (Human), UniProt Q96S37) for `N#Cc1ccc(-c2cnccc2NCC(=O)O)c2ccccc12`
Output: < 6.00
